Biological target: CDK9/CyclinT1 (Homo sapiens, UniProt P50750)
Sequence (P50750 whole entry): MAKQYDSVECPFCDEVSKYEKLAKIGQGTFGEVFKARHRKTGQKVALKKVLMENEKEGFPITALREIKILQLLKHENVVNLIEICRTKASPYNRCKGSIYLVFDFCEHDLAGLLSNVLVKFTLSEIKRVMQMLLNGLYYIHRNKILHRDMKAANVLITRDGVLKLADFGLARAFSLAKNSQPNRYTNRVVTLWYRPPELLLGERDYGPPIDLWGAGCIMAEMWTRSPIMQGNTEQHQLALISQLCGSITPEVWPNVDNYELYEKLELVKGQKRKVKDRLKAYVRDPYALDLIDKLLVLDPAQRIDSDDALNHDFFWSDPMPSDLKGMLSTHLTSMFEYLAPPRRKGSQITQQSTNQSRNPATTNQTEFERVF
Sequence (O60563 whole entry partner): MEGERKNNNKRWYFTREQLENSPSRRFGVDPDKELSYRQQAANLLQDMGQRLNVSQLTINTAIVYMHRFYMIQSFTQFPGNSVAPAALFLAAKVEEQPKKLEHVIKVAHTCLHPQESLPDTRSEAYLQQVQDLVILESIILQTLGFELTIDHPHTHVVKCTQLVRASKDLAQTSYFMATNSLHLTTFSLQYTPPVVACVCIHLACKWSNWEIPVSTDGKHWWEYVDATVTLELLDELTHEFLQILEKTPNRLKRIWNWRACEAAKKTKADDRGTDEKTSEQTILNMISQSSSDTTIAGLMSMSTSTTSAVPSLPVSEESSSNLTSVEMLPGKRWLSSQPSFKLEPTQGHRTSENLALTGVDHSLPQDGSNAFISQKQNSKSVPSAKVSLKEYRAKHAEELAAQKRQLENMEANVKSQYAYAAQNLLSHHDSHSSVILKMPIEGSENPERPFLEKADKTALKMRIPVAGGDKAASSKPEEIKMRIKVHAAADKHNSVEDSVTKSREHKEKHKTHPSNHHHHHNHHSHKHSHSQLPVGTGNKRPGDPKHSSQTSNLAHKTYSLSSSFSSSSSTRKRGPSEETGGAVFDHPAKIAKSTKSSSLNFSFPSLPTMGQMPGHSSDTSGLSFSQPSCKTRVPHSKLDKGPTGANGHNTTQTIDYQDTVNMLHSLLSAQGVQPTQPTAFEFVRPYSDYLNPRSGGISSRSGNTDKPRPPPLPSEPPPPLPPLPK
Assay: In vitro CDK9/CyclinT1 enzyme activity test (ADP-Glo)
Conditions: 100 μM ATP, 25° C., 120 minutes
Structures can show the parent of a compound that is named as a salt.
measured endpoint: IC50 (nM)

Solved entries:
Query for CDK9/CyclinT1 (Homo sapiens, UniProt P50750): what IC50 does the record show for Clc1cccc(Cn2cc(-c3c(Cl)cnc4[nH]c(C5CCNCC5)cc34)cn2)c1 [Compound 11 (formate)] ?
6.4

Query for CDK9/CyclinT1 (Homo sapiens, UniProt P50750): what IC50 does the record show for Clc1cnc2[nH]c(C3CCNCC3)nc2c1-c1cnn(CC2CC2)c1 [Compound 14] ?
38.4

Query for CDK9/CyclinT1 (Homo sapiens, UniProt P50750): what IC50 does the record show for c1cc(-c2cnn(CC3CC3)c2)c2cc(C3CCNCC3)[nH]c2n1 [Compound 3 (formate)] ?
18

A. Clc1ccccc1Cn1cc(-c2c(Cl)cnc3[nH]c(C4CCNCC4)cc23)cn1 [Compound 10 (formate)]
B. CCN1CCC(c2cc3c(-c4cnn(CC5CC5)c4)c(Cl)cnc3[nH]2)CC1 [Compound 3 (hydrochloride)]
Compare the recorded IC50 of A and B ; state which is larger. Pick one and reply with its label.
B
(B: 14.1 nM, A: 6.9 nM)

----------
Target: CDK2/CyclinE1 (Homo sapiens)
Construct: purchased Promega
Test: In vitro CDK2/CyclinE1 enzyme activity test (ADP-Glo)
Assay type: biochemical
Conditions: 150 μM ATP, 25° C., 60 minutes
Where a name gives a salt, the structure may show the parent alone.
measured endpoint: IC50 (nM)

I. COCCN1CCC(c2cc3c(-c4cnn(CC5CC5)c4)c(Cl)cnc3[nH]2)CC1 [5 (hydrochloride)]
II. COCC(C)N1CCC(c2cc3c(-c4cnn(CC5CC5)c4)c(Cl)cnc3[nH]2)CC1 (stereo not drawn) [Compound 6 (formate)]
Compare the recorded IC50 of I and II ; state which is larger. Pick one and reply with its label.
II

P. Clc1cnc2[nH]c(C3CCNCC3)cc2c1-c1cnn(CC2CCCC2)c1 [Compound 8 (formate)]
Q. CC(C)N1CCC(c2cc3c(-c4cnn(CC5CC5)c4)c(Cl)cnc3[nH]2)CC1 [4 (hydrochloride)]
From the items above, decide which of P and Q has the lower IC50 reading. Pick one and reply with its label.
P

----------
Target: CDK1/CyclinB1 (Homo sapiens)
Sequence (P06493 whole entry): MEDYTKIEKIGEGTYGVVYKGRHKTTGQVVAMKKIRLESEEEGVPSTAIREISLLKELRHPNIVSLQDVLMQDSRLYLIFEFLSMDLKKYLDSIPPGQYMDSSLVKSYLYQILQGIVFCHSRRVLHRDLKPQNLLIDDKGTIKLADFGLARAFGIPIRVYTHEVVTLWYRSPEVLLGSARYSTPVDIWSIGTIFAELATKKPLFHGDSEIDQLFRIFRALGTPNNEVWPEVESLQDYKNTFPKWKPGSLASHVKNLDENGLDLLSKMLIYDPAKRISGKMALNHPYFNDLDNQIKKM
Sequence (P14635 whole entry partner): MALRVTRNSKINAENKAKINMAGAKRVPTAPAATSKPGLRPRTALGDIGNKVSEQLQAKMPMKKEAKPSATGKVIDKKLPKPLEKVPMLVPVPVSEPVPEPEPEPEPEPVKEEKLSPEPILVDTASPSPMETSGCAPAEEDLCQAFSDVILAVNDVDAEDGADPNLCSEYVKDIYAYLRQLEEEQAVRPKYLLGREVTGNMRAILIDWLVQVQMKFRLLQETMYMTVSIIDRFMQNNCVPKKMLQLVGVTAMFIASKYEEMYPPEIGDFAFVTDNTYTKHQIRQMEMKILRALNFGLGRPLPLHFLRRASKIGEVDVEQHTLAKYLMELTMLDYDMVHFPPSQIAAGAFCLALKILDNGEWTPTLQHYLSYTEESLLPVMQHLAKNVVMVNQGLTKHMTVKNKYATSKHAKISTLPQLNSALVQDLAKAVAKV
Assay: In vitro CDK1/CyclinB1 enzyme activity test (ADP-Glo)
Settings: 25 μM ATP, 25° C., 120 minutes
Experimental: CDK1/CyclinB1 kinase detection kit was purchased from Promega. Nivo multi-label analyzer (PerkinElmer). Using the kinase buffer in the kit to dilute the enzyme, substrate, adenosine triphosphate and inhibitor. The compound to be tested was diluted 5-fold to the 8th concentration with a discharge gun, that is, diluted from 50 μM to 0.65 nM, with a DMSO concentration of 5%, and replicated. […] After reacting at 25° C. for 30 minutes, use a multi-label analyzer to read chemiluminescence. […]
Structures can show the parent of a compound that is named as a salt.
measured endpoint: IC50 (nM)

Which IC50 value is on record for Clc1cnc2[nH]c(C3CCNCC3)cc2c1-c1cnn(Cc2ccccc2)c1 [Compound 9 (formate)] ?
133

Which IC50 value is on record for Clc1cnc2[nH]c(C3CCNCC3)cc2c1-c1cnn(CC2CC2)c1 [Compound 1 (hydrochloride)] ?
88.7

Which IC50 value is on record for CCN1CCC(c2cc3c(-c4cnn(CC5CC5)c4)c(Cl)cnc3[nH]2)CC1 [Compound 3 (hydrochloride)] ?
416

Which IC50 value is on record for Clc1ccccc1Cn1cc(-c2c(Cl)cnc3[nH]c(C4CCNCC4)cc23)cn1 [Compound 10 (formate)] ?
87.9

Which IC50 value is on record for CC(C)N1CCC(c2cc3c(-c4cnn(CC5CC5)c4)c(Cl)cnc3[nH]2)CC1 [4 (hydrochloride)] ?
756

1. COCC(C)N1CCC(c2cc3c(-c4cnn(CC5CC5)c4)c(Cl)cnc3[nH]2)CC1 (centres unmarked) [Compound 6 (formate)]
2. Clc1cccc(Cn2cc(-c3c(Cl)cnc4[nH]c(C5CCNCC5)cc34)cn2)c1 [Compound 11 (formate)]
From the items above, decide which of 1 and 2 has the lower IC50 reading. Pick one and reply with its label.
2

----------
Biological target: CDK9/CyclinT1 (Homo sapiens, UniProt P50750)
Construct: purchased Carna
Assay: In vitro CDK9/CyclinT1 enzyme activity test (ADP-Glo)
Format: biochemical
Details: 100 μM ATP, 25° C., 120 minutes
pIC50: −log10 of the molar value. Counter-ions that a name gives are not always drawn.
measured endpoint: pIC50

Which pIC50 value is on record for CC(C)N1CCC(c2cc3c(-c4cnn(CC5CC5)c4)c(Cl)cnc3[nH]2)CC1 [4 (hydrochloride)] ?
7.99

Which pIC50 value is on record for Clc1cnc2[nH]c(C3CCNCC3)c(Cl)c2c1-c1cnn(CC2CC2)c1 [Compound 7] ?
8.28

Which pIC50 value is on record for COCCN1CCC(c2cc3c(-c4cnn(CC5CC5)c4)c(Cl)cnc3[nH]2)CC1 [5 (hydrochloride)] ?
7.97

Which pIC50 value is on record for Clc1ccc(Cn2cc(-c3c(Cl)cnc4[nH]c(C5CCNCC5)cc34)cn2)cc1 [Compound 12] ?
8.11

----------
Target: CDK9/CyclinT1 (Homo sapiens, UniProt P50750)
Assay: In vitro CDK9/CyclinT1 enzyme activity test (ADP-Glo)
Settings: 100 μM ATP, 25° C., 120 minutes
pIC50: −log10 of the molar value. Counter-ions that a name gives are not always drawn.
measured endpoint: pIC50

Which pIC50 value is on record for Clc1cnc2[nH]c(C3CCNCC3)cc2c1-c1cnn(Cc2ccccc2)c1 [Compound 9 (formate)] ?
8.20

Which pIC50 value is on record for Cn1cc(-c2c(Cl)cnc3[nH]c(C4CCNCC4)cc23)cn1 [Compound 15 (hydrochloride)] ?
8.37

Which pIC50 value is on record for Clc1cnc2[nH]c(C3CCNCC3)cc2c1-c1cnn(CC2CCCC2)c1 [Compound 8 (formate)] ?
8.15

----------
Target: CDK2/CyclinE1 (Homo sapiens, UniProt P24941)
Experiment: In vitro CDK2/CyclinE1 enzyme activity test (ADP-Glo)
Settings: 150 μM ATP, 25° C., 60 minutes
pIC50: −log10 of the molar value. Counter-ions that a name gives are not always drawn.
measured endpoint: pIC50

Which pIC50 value is on record for "Clc1cnc2[nH]c(C3CCNCC3)c(Cl)c2c1-c1cnn(CC2CC2)c1" ?
6.95

Which pIC50 value is on record for CCN1CCC(c2cc3c(-c4cnn(CC5CC5)c4)c(Cl)cnc3[nH]2)CC1 [Compound 3 (hydrochloride)] ?
6.98

Which pIC50 value is on record for CN1CCC(c2cc3c(-c4cnn(CC5CC5)c4)c(Cl)cnc3[nH]2)CC1 [Compound 2 (formate)] ?
7.10

Which pIC50 value is on record for Clc1cnc2[nH]c(C3CCNCC3)cc2c1-c1cnn(CC2CC2)c1 [Compound 1 (hydrochloride)] ?
6.95

Which pIC50 value is on record for COc1cc(F)ccc1-c1cc(Nc2cc(CS(C)(=N)=O)ccn2)ncc1F (centres unmarked) ?
6.71
